# Protocol text: Oral bioavailability in CD1 mouse at 10 mg/kg
# Format: ADME, organism-based
# Run parameters: in vivo
Recorded metric: bioavailability (%)

In [3]: df
Out[3]:
                            smiles_notation  recorded_measurement
0  CC(=O)N1N=C(c2cc(F)ccc2F)S[C@@]12c1cc(F)c(F)cc1OC[C@H]2CCN                    87
1  CC(=O)N1N=C(c2cc(F)ccc2F)S[C@@]12c1cccc(F)c1OC[C@H]2CCN                    46

P: CC(=O)N1N=C(c2cc(F)ccc2F)S[C@@]12c1cc(F)ccc1OC[C@H]2CCN
Q: CC(=O)N1N=C(c2cc(F)ccc2F)S[C@@]12c1cc(F)cc(F)c1OC[C@H]2CCN
Endpoint returns whichever of P and Q has the numerically higher bioavailability. State the label of the item chosen.
Q
